Experimental target: wild-type human cardiac sodium channel, hNav1.5 (Homo sapiens)
Sequence (Q14524 whole entry): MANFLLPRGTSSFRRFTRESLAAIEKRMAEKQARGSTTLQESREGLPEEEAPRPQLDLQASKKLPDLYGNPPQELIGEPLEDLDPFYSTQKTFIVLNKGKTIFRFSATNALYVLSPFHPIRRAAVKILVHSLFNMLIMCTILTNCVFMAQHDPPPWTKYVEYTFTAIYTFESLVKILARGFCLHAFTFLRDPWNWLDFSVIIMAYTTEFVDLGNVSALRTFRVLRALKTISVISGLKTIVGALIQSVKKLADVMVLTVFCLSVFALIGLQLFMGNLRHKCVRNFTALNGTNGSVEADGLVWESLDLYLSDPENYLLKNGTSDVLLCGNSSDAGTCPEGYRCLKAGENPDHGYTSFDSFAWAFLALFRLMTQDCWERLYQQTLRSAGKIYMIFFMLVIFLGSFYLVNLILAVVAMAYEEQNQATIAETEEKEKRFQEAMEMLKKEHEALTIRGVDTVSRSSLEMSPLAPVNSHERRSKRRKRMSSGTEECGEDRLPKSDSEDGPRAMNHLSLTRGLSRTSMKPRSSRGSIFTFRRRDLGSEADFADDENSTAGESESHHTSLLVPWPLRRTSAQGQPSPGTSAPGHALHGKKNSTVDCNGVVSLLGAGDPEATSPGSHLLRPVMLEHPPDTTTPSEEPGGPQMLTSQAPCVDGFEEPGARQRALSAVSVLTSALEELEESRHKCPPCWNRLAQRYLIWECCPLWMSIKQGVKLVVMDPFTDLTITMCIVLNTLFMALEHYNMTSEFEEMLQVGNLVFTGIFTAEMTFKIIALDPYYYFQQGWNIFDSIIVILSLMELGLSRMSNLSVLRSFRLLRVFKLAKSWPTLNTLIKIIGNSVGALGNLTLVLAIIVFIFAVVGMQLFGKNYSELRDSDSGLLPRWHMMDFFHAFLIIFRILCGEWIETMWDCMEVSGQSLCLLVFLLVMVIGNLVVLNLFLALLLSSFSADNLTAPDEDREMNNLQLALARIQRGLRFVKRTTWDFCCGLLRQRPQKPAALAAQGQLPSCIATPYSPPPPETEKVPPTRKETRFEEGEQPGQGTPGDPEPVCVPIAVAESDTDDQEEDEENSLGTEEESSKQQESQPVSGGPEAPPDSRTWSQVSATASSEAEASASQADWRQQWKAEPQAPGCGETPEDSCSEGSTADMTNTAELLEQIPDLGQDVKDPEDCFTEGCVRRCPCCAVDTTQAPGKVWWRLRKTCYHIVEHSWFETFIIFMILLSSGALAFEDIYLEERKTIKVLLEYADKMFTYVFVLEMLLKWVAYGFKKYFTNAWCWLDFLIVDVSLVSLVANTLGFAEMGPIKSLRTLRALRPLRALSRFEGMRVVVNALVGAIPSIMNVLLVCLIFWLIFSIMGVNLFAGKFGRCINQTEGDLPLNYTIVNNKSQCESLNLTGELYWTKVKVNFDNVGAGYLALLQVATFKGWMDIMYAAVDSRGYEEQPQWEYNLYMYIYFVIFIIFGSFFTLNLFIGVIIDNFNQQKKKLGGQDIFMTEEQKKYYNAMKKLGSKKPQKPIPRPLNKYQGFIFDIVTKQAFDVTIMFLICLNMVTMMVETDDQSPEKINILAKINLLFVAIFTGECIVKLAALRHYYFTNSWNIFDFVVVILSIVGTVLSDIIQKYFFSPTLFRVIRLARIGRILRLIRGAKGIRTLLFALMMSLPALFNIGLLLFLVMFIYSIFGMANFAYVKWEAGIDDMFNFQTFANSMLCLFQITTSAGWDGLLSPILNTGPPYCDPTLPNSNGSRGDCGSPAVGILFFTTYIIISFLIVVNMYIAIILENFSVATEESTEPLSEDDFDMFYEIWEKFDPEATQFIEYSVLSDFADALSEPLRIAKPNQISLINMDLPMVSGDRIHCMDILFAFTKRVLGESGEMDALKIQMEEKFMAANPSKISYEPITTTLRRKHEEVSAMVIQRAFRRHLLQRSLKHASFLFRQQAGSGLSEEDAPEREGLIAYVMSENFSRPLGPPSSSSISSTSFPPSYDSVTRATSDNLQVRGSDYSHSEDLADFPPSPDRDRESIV
Assay explanation: Late INa screening assay (QPatch whole cell patch clamp, Tefluthrin-induced late current)
Type: cell-based
Measurement context: 1 uM; HEK293 hNav1.5; percent block of late INa
Lab note: anything with inhibition at 1 µM at or over 50% counts as yes (1); the rest go in no (0).

FC(F)(F)Oc1ccc(-c2ccc3onc(OCc4ncco4)c3c2)cc1 [Example 53]	yes (1)
Cc1cc(-c2ccc(OC(F)(F)F)cc2)cc2c(OCc3cn(C)nn3)noc12 [Example 87]	yes (1)
FC(F)(F)Oc1ccc(-c2ccc3onc(OCc4cnccn4)c3c2)cc1 [Example 151]	yes (1)
Cc1cc(OC(F)(F)F)ccc1-c1cc2c(OCc3ncccn3)noc2cc1C [Example 29]	no (0)
Fc1cc(-c2ccc(OC(F)(F)F)cc2)cc2c(OCc3nnc(C4CC4)o3)noc12 [Example 104]	no (0)
COc1cc(-c2ccc(OC(F)(F)F)cc2)cc2c(OCc3ncccn3)noc12 [Example 22]	yes (1)
O=S1(=O)CCN(CCOc2noc3ccc(-c4ccc(OC(F)(F)F)cc4)cc23)CC1 [Example 85]	no (0)
FC(F)(F)Oc1ccc(-c2ccc3onc(OCc4ncccn4)c3c2)cc1 [Example 1]	yes (1)

Read the next record carefully.
Dear colleague, could you confirm whether O=C1CC(COc2noc3ccc(-c4ccc(OC(F)(F)F)cc4)cc23)CN1 (centres unmarked) [Example 46] has inhibition at 1 µM at or above 50%?
no (0)
